- TARGET_ENTITY: Troponin I, cardiac muscle (Homo sapiens) + Troponin T, cardiac muscle (Homo sapiens) + Troponin C, slow skeletal and cardiac muscles (Homo sapiens) (UniProt P19429+P45379+P63316)
- METHOD: cardiac RTF calcium sensitivity activators, confirmation, biochemical, IANBD-TnC fluorescence, triplicate (AID 504383);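 further: 0% = DMSO at 0.472 mM calcium and 100% = DMSO at 2.9 mM calcium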
- CONDITIONS: IANBD-labeled cardiac RTF, Ca2+ sensitivity fluorescence; at 7.2 µM; scaled from EC20 to saturating calcium; tested at EC20 calcium, 0.472 mM
The whole screen tested about 2,500 compounds, of which about 1,200 (48%) were called active.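 How the source made its calls: active means mean activation above the low control average plus 3 SD, as set in the primary screen (cut at about 12% in these data); inactive means the rest.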 The set was probably picked from earlier hits. This is one part of the list.
Possible outcomes: 1.0 = active, 0.0 = inactive

[[record]]
molecule = "COc1ccc(N2CCN(C(=O)Cn3nnc(-c4ccccc4N)n3)CC2)cc1"
assigned_category = 1.0

[[record]]
molecule = "COc1ccc(-n2nc3c(N4CCC(C(=O)NCc5ccco5)CC4)nnc(C)c3c2C)cc1"
assigned_category = 0.0

[[record]]
molecule = "O=C(O)C(c1ccccc1)N1C(=O)/C(=C\\c2ccc(-c3ccc(Br)cc3)o2)SC1=S (centres undefined)"
assigned_category = 1.0

[[record]]
molecule = "CCCCN(C(=O)c1ccc([N+](=O)[O-])o1)c1c(N)n(CCCC)c(=O)[nH]c1=O"
assigned_category = 0.0

[[record]]
molecule = "O=C(CCc1ccc(S(=O)(=O)N2CCOCC2)cc1)OCC(=O)c1ccccc1"
assigned_category = 1.0

[[record]]
molecule = "C/C(=N/NC(=O)c1cc(C)[nH]n1)c1ccco1"
assigned_category = 1.0

[[record]]
molecule = "COCCCN(C(=O)c1cccnc1SC)c1c(N)n(Cc2ccccc2)c(=O)[nH]c1=O"
assigned_category = 1.0

[[record]]
molecule = "O=C(COC(=O)C1CC2C=CC1C2)Nc1cccc(S(=O)(=O)N2CCCCCC2)c1 (centres undefined)"
assigned_category = 0.0

[[record]]
molecule = "CC(C)C12CN(C(=O)c3ccccc3[N+](=O)[O-])CC(C(C)C)(CN(C(=O)c3ccccc3[N+](=O)[O-])C1)C2=O"
assigned_category = 0.0

